VALUE_KIND: melting point

compound="O=C1CC(N2C=Nc3cccc(F)c3C2)C(=O)N1 (stereo not shown) [Example 11b]" observed_result="184 to 191 °C"
compound="Cc1cccc2c1CN(C1CC(=O)NC1=O)C=N2 (stereo not shown)" observed_result="221 to 224 °C"
compound="CC1=Nc2cc(C(F)(F)F)ccc2CN1C1CC(=O)NC1=O (stereo not shown) [Example 15aa]" observed_result="205 to 206 °C"
compound="O=C1CC(N2C=Nc3cc([N+](=O)[O-])ccc3C2)C(=O)N1 (stereo not shown)" observed_result="212 to 225 °C"
compound="COc1ccc2c(c1)N=CN(C1CC(=O)NC1=O)C2 (stereo not shown)" observed_result="174 to 184 °C"
compound="CC1=Nc2cc3ccccc3cc2CN1C1CC(=O)NC1=O (stereo not shown) [Example 15t]" observed_result="106 to 110 °C"
compound="CC1=Nc2c(Cl)cc(Cl)cc2CN1C1CC(=O)NC1=O (stereo not shown) [Example 15w]" observed_result="180 to 182 °C"
compound="CCOc1cccc2c1CN(C1CC(=O)NC1=O)C(C)=N2 (stereo not shown) [Example 15k]" observed_result="130 to 133 °C"
compound="CCCCCOc1cccc2c1CN(C1CC(=O)NC1=O)C=N2 (stereo not shown) [Example 12c]" observed_result="154 to 160 °C"
compound="CC1=Nc2cc(F)c(F)cc2CN1C1CC(=O)NC1=O (stereo not shown) [Example 15u]" observed_result="183 to 185 °C"
compound="O=C1CC(N2C=Nc3c(cccc3C(F)(F)F)C2)C(=O)N1 (stereo not shown) [Example 11c]" observed_result="188 to 190 °C"
compound="CN1C(=O)CC(N2C=Nc3cc(F)ccc3C2)C1=O (stereo not shown) [Example 11e]" observed_result="191 to 193 °C"
compound="CCOc1cccc2c1CN(C1CC(=O)NC1=O)C=N2 (stereo not shown) [Example 12b]" observed_result="203 to 205 °C"
compound="CC1=Nc2c(Cl)ccc(Cl)c2CN1C1CC(=O)NC1=O (stereo not shown) [Example 15f]" observed_result="186 to 191 °C"
compound="O=C1CC(N2C=Nc3ccccc3C2)C(=O)N1 (stereo not shown) [Example 11a]" observed_result="168 to 174 °C"
compound="CC1=Nc2cccc(C)c2CN1C1CC(=O)NC1=O (stereo not shown) [Example 15n]" observed_result="200 to 201 °C"
compound="Cc1cc(Br)c2c(c1)CN(C1CC(=O)NC1=O)C=N2 (stereo not shown)" observed_result="240 to 241 °C"
compound="O=C1CC(N2C=Nc3cccc(Cl)c3C2)C(=O)N1 (stereo not shown) [Example 10a]" observed_result="218 °C"
compound="COc1cccc2c1CN(C1CC(=O)NC1=O)C(C)=N2 (stereo not shown) [Example 15o]" observed_result="122 °C"
